systemUnderTest: T1, human IL-18BP (interleukin-18 binding protein, isoform A) (human, UniProt O95998 31-194)
T1 construct: cell assays used Sino Biological 10357-H08H; PBMC assay 1 relies on endogenous IL-18BP; UniProt number is printed as 095998; also called hIL-18BP
T1 sequence: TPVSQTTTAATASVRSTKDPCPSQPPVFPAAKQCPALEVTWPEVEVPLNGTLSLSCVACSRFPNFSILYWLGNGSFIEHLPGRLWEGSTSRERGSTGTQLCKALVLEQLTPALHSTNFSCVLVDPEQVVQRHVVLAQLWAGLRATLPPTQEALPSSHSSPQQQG
assayMethodText: BLI single-concentration screen, apparent KD
resultType: Kd (nM)
Output spec: scalar in nM, unitless text.

Some binders with recorded Kd:
heavy chain library variant C34L (antibody, V domains shown) VH: QVQLQESGPGLVKPSQTLSLTCTVSGYSITSDYNLHWIRQPPGKGLEWIGYIHYSGSTNYNPSLKSRVTISRDTSKNQFSLKLSSVTAADTAVYYCARNYGSIYVNYFDYWGQGTLVTVSS VL: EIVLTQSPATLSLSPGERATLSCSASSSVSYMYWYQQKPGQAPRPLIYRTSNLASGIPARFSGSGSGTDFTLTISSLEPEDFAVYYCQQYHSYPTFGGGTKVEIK: 0.4
heavy chain library variant C34F (antibody, V domains shown) VH: QVQLQESGPGLVKPSQTLSLTCTVSGYSITSDYNFHWIRQPPGKGLEWIGYIHYSGSTNYNPSLKSRVTISRDTSKNQFSLKLSSVTAADTAVYYCARNYGSIYVNYFDYWGQGTLVTVSS VL: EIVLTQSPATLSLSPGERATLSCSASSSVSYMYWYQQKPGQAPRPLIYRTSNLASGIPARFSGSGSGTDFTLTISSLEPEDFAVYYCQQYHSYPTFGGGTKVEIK: 0.6

For the binder shown here, SA302a heavy chain variant N33bF, C34A (antibody, human IgG1, V domains shown, library variant, human IgG1/kappa, from supernatant) VH: QVQLQESGPGLVKPSQTLSLTCTVSGYSITSDYFAHWIRQPPGKGLEWIGYIHYSGSTNYNPSLKSRVTISRDTSKNQFSLKLSSVTAADTAVYYCARNYGSIYVNYFDYWGQGTLVTVSS VL: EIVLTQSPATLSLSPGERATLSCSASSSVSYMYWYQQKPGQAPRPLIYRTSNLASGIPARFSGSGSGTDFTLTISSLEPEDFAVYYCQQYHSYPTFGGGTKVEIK , give the reported Kd.
1.5

Note, next up: heavy chain library variant C34K (antibody, V domains shown) VH: QVQLQESGPGLVKPSQTLSLTCTVSGYSITSDYNKHWIRQPPGKGLEWIGYIHYSGSTNYNPSLKSRVTISRDTSKNQFSLKLSSVTAADTAVYYCARNYGSIYVNYFDYWGQGTLVTVSS VL: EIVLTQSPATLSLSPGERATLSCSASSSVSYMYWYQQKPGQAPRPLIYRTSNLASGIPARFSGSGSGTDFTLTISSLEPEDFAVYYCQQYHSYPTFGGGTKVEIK
1
